# testedSystem: T1, HSP110 (human, UniProt Q92598 1-858, limits assumed)
# T1 construct: also called HSPH1; Hsp105
# T1 sequence (Q92598 whole entry): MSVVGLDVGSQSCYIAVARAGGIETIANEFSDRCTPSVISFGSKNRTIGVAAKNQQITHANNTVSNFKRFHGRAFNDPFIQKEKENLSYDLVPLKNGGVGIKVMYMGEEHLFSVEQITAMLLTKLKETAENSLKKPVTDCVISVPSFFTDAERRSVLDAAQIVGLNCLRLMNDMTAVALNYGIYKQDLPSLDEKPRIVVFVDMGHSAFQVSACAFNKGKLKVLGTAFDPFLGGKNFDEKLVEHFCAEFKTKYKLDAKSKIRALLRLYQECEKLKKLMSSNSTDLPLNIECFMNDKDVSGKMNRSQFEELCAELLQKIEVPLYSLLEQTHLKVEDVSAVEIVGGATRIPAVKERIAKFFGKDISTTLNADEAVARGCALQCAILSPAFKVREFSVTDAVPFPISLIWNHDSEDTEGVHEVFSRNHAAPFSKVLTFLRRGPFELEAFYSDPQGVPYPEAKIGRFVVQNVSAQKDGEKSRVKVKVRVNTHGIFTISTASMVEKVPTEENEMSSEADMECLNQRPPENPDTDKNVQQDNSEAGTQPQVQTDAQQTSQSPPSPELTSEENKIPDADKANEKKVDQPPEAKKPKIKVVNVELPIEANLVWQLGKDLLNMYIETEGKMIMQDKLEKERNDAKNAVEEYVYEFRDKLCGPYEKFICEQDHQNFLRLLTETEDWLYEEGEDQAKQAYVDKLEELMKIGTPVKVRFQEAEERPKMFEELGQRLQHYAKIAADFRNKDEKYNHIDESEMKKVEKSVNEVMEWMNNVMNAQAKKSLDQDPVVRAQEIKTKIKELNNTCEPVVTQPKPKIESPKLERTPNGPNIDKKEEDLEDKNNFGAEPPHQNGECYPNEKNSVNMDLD
observable: Kd

## Task Look up Kd for this binder: A-C2 (Sac7d variant binding to HSP110, SEQ ID NO: 27) (designed binder, also called NF1; anti-HSP110 variant) MVKVKFMWRGEEKEVDTSKIWDVWRSGKTVYFHYDDNGKMGQGKVHEKDAPKELLDMLARAEREKK
## Result < 1 nM
